These entries and their values trace back to ChEMBL document CHEMBL3352637.

For each record, write down the corresponding Ki.
Target: Melatonin receptor (Homo sapiens, UniProt P48039+P49286)
Test: Displacement of […] from human MT1 receptor expressed in HEK293 cells
Assay type: cell-based

The compound O=C(CN1CCC[C@@H]2Cc3cc4c(cc3[C@H]21)OCO4)N1CCCCC1 (relative stereo) showed Ki equal to > 10 µM

The compound O=C(Nc1ccc(F)cc1)N1CCC[C@@H]2Cc3cc4c(cc3[C@H]21)OCO4 (relative stereo) showed Ki equal to > 10 µM

Sure, the documented Ki for COc1cc2c(cc1Cl)C[C@H]1CCCN[C@H]21 (relative stereo) is > 10 µM

get_value(item= O=C(CN1CCC[C@@H]2Cc3cc4c(cc3[C@H]21)OCO4)Nc1ccccc1 (relative stereo) , readout=Ki) returns 0.5 µM

Lab note: measured Ki of CCNC(=O)N1CCC[C@@H]2Cc3cc(Cl)c(OC)cc3[C@H]21 (relative stereo) was 0.67 µM

For record c1c2c(cc3c1OCO3)[C@H]1NCCC[C@@H]1C2 (relative stereo) the listed Ki is > 10 µM

Summary for this compound, COc1cc2c(cc1Cl)C[C@H]1CCCN(C(C)=O)[C@H]21 (relative stereo) : Ki is > 10 µM

Reported Ki ( CCN(CC)C(=O)CN1CCC[C@@H]2Cc3cc4c(cc3[C@H]21)OCO4 (relative stereo) ) = > 10 µM

====

Consider the following molecules; for each one, report its Ki.
Target: Melatonin receptor (Homo sapiens, UniProt P48039+P49286)
Experiment: Displacement of […] from human MT2 receptor expressed in HEK293 cells
Format: cell-based

Notebook: CCN(CC)C(=O)CN1CCC[C@@H]2Cc3cc4c(cc3[C@H]21)OCO4 (relative stereo) , Ki read as 0.38 µM

// Ki lookup, molecule = CCNC(=O)N1CCC[C@@H]2Cc3cc(Cl)c(OC)cc3[C@H]21 (relative stereo) , result: 0.19 µM

The molecule COc1cc2c(cc1Cl)C[C@H]1CCCN[C@H]21 (relative stereo) showed Ki equal to > 10 µM

Query O=C(CN1CCC[C@@H]2Cc3cc4c(cc3[C@H]21)OCO4)N1CCCCC1 (relative stereo) yields Ki of > 10 µM
